Quick reference for IC50 among some compounds
- System: human lung cancer strain NCI-H441
- Type: cell-based
All answers are understood in nM, so give the number only.

Field: example entries. Status: answers known.
# Chemical String, Reported Value
records = [
    ("C=CC[C@H]1C(=O)N[C@@H]([C@@H](C)CC)C(=O)N(C)CC(=O)N(C)[C@H]2CCCCCN(C2=O)[C@@H](Cc2ccc(C(F)(F)F)cc2)C(=O)N(C)CC(=O)N[C@@H](CCc2cc(F)c(C(F)(F)F)c(F)c2)C(=O)N2C[C@H](OCC)C[C@H]2C(=O)N[C@](C)(CC=C)C(=O)N(C)[C@@H](C2CCCC2)C(=O)N(C)[C@H](C(=O)N2CCOCC2)CC(=O)N1C", 85.9),
    ("CCO[C@@H]1C[C@H]2C(=O)NC3(CC(C)(C)C3)C(=O)N(C)[C@@H](C3CCCC3)C(=O)N(C)[C@H](C(=O)N(C)C)CC(=O)N(C)[C@@H](CC(C)C)C(=O)N[C@@H]([C@@H](C)CC)C(=O)N(C)CC(=O)N(C)[C@H]3C/C=C\\CCN(C3=O)[C@@H](Cc3ccc(C)cc3F)C(=O)N(C)CC(=O)N[C@@H](CCc3ccc(C(F)(F)F)c(OC)c3)C(=O)N2C1", 6.9),
]

Now consider a different compound.
Recorded IC50 for `CCO[C@@H]1C[C@H]2C(=O)NC3(CCC3)C(=O)N(C)[C@@H](C(C)(C)C)C(=O)N(C)[C@H](C(=O)N3CCOCC3)CC(=O)N(C)[C@@H](CC(C)C)C(=O)N[C@@H]([C@@H](C)CC)C(=O)N(C)CC(=O)N(C)[C@H]3CCCCN(C3=O)[C@@H](Cc3ccc(C(F)(F)F)cc3)C(=O)N(C)CC(=O)N[C@@H](CCc3cc(F)c(C(F)(F)F)c(F)c3)C(=O)N2C1` on human lung cancer strain NCI-H441 was 19.4

---

- Target Or Test System: GDP-bound KRAS wild-type protein (Homo sapiens)
- Run Description: Binding to KRAS by surface plasmon resonance (SPR), dissociation constant KD
- Condition: 1:1 binding model
- Description: Surface plasmon resonance was used to analyze the binding affinity of compounds for KRAS, NRAS, and HRAS. […] The resulting sensorgram was subjected to curve fitting based on a 1:1 binding model on Biacore Insight Evaluation Software or T200 Evaluation Software, and thereby the dissociation constant KD of each compound with respect to KRAS, NRAS, and HRAS was determined. […]
Observable: pKd
pKd here is simply -log10 of the concentration when that concentration is written in mol/L.

Recorded pKd for `CCO[C@@H]1C[C@H]2C(=O)NC3(CC(C)(C)C3)C(=O)N(C)[C@@H](C3CCCC3)C(=O)N(C)[C@H](C(=O)N(C)C)CC(=O)N(C)[C@@H]([C@H](C)OC)C(=O)N[C@@H]([C@@H](C)CC)C(=O)N3CCC[C@H]3C(=O)N(C)[C@H]3C/C=C\CCN(C3=O)[C@@H](Cc3ccc(C)cc3)C(=O)N(C)CC(=O)N[C@@H](CCc3cc(F)c(C(F)(F)F)c(F)c3)C(=O)N2C1` on GDP-bound KRAS wild-type protein (Homo sapiens) was 9.10

---

Quick reference for Kd among some compounds
- Target Or Test System: GDP-bound KRAS wild-type protein (Homo sapiens, UniProt P01116)
- Sequence (P01116 1-188 isoform P01116-2): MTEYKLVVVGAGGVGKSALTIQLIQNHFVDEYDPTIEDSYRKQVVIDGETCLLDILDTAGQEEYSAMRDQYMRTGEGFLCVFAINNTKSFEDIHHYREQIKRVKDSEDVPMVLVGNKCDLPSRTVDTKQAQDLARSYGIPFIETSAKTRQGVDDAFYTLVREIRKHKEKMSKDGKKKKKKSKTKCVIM
- Run Description: Binding to KRAS by surface plasmon resonance (SPR), dissociation constant KD
- Condition: Single Cycle Kinetics
Where a SMILES comes first, the peptide text is derived from it. Bridges are numbered along the chain shown (N, C = ends). [ ]: non-standard residue; d: D form. The star is where a group is joined. hPhe(3,5-F2-4-CF3) = N[C@@H](CCc1cc(F)c(C(F)(F)F)c(F)c1)C(=O)O; NPrPhe(4-CF3) = CCCN[C@@H](Cc1ccc(C(F)(F)F)cc1)C(=O)O; NMeGly(cPent) = CN[C@H](C(=O)O)C1CCCC1; NMeD = CN[C@@H](CC(=O)O)C(=O)O; NMeL = CN[C@@H](CC(C)C)C(=O)O; αMeS = C[C@](N)(CO)C(=O)O; Morpholide = C1CN(*)CCO1; Sar = CNCC(=O)O; Allyl = C=CC*

Field: example entries. Status: answers known.
# Compound, Kd
rows = [
    ("CCC[C@H]1C(=O)N[C@@H]([C@@H](C)CC)C(=O)N(C)CC(=O)N(C)[C@H]2C/C=C\\CCN(C2=O)[C@@H](Cc2ccc(C)cc2)C(=O)N(C)CC(=O)N[C@@H](CCc2cc(F)c(C(F)(F)F)c(F)c2)C(=O)N2CC3(CC3)C[C@H]2C(=O)N(C)C2(CCC2)C(=O)N(C)[C@@H]([C@@H](C)CC)C(=O)N(C)[C@H](C(=O)N(C)C)CC(=O)N1C [PP3331]", "0.1 nM"),
    ("CCC[C@H]1C(=O)N[C@@H]([C@@H](C)CC)C(=O)N(C)CC(=O)N(C)[C@H]2C/C=C\\CCN(C2=O)[C@@H](Cc2ccc(C)cc2)C(=O)N(C)CC(=O)N[C@@H](CCc2cc(F)c(C(F)(F)F)c(F)c2)C(=O)N2CC[C@H](OC)[C@H]2C(=O)N(C)C2(CCC2)C(=O)N(C)[C@@H](C2CCCC2)C(=O)N(C)[C@H](C(=O)N(C)C)CC(=O)N1C [PP3287]", "0.057 nM"),
    ("CCO[C@@H]1C[C@H]2C(=O)NC3(CCC3)C(=O)N(C)[C@@H](C3CCCC3)C(=O)N(C)[C@H](C(=O)N(C)C)CC(=O)N(C)[C@@H](CC(C)C)C(=O)N[C@@H]([C@@H](C)CC)C(=O)N(C)CC(=O)N(C)[C@H]3C/C(F)=C\\CCN(C3=O)[C@@H](Cc3ccc(C(F)(F)F)cc3)C(=O)N(C)CC(=O)N[C@@H](CCc3cc(F)c(C(F)(F)F)c(F)c3)C(=O)N2C1 [PP3514]", "0.17 nM"),
    ("CCCO[C@@H]1C[C@H]2C(=O)NC3(CC(C)(C)C3)C(=O)N(C)[C@@H](C3CCCC3)C(=O)N(C)[C@H](C(=O)N(C)CC)CC(=O)N(C)[C@@H](COCC)C(=O)N[C@@H]([C@@H](C)CC)C(=O)N3C[C@@H](F)C[C@H]3C(=O)N(C)[C@H]3C/C=C\\CCN(C3=O)[C@@H](Cc3ccc(C(F)(F)F)cc3)C(=O)N(C)CC(=O)N[C@@H](CCc3ccc(C(F)(F)F)c(Cl)c3)C(=O)N2C1 [PP3409]", "0.55 nM"),
    ("CCCC[C@@H]1NC(=O)C[C@@H](C(=O)N(C)C)N(C)C(=O)[C@H](C2CCCC2)N(C)C(=O)C2(CC(C)(C)C2)NC(=O)[C@@H]2C[C@@H](OCC)CN2C(=O)[C@H](CCc2ccc(C(F)(F)F)c(Cl)c2)NC(=O)CN(C)C(=O)[C@H](Cc2ccc(C(F)(F)F)cc2)N2CC/C=C\\C[C@@H](C2=O)N(C)C(=O)CN(C)C(=O)[C@H]([C@@H](C)CC)NC1=O [PP3453]", "0.34 nM"),
    ("C=CCOC[C@]1(C)NC(=O)[C@@H]2CCCN2C(=O)[C@H](CCc2cc(F)c(C(F)(F)F)c(F)c2)NC(=O)CN(C)C(=O)[C@H](Cc2ccc(C(F)(F)F)cc2)N(CCC)C(=O)CN(C)C(=O)CN(C)C(=O)[C@H]([C@@H](C)CC)NC(=O)[C@H](CC(C)C)N(C)C(=O)C[C@@H](C(=O)N2CCOCC2)N(C)C(=O)[C@H](C2CCCC2)N(C)C1=O [PP0763] ([NMeL]I[Sar][Sar][NPrPhe(4-CF3)][Sar][hPhe(3,5-F2-4-CF3)]P[αMeS](Allyl)[NMeGly(cPent)][NMeD]-Morpholide; lactam N-11)", "0.98 nM"),
]

The compound listed as CCC[C@H]1C(=O)N[C@@H]([C@@H](C)CC)C(=O)N2CCCC[C@H]2C(=O)N(C)[C@H]2C/C=C\CCN(C2=O)[C@@H](Cc2ccc(C(F)(F)F)cc2)C(=O)N(C)CC(=O)N[C@@H](CCc2ccc(C(F)(F)F)c(OC)c2)C(=O)N2C[C@H](OCC)C[C@H]2C(=O)N(C)C2(CCC2)C(=O)N(C)[C@@H](C2CCCC2)C(=O)N(C)[C@H](C(=O)N(C)C)CC(=O)N1C [PP3270] shows Kd equal to 0.43 nM

The compound listed as CCC[C@H]1C(=O)N[C@@H]([C@@H](C)CC)C(=O)N(C)CC(=O)N(C)[C@H]2C/C=C\CCN(C2=O)[C@@H](Cc2ccc(C(F)(F)F)cc2)C(=O)N(C)CC(=O)N[C@@H](CCc2ccc(C(F)(F)F)c(Cl)c2)C(=O)N2CC3(CC3)C[C@H]2C(=O)NC2(CCC2)C(=O)N(C)[C@@H](C(CC)CC)C(=O)N(C)[C@H](C(=O)N(C)C)CC(=O)N1C [PP3414] shows Kd equal to 0.37 nM

The compound listed as CCCC[C@H]1C(=O)N[C@@H]([C@@H](C)CC)C(=O)N(C2CC2)CC(=O)N(C)[C@H]2C/C=C\CCN(C2=O)[C@@H](Cc2ccc(C(F)(F)F)cc2)C(=O)N(C)CC(=O)N[C@@H](CCc2ccc(C(F)(F)F)c(OC)c2)C(=O)N2C[C@H](OCC)C[C@H]2C(=O)OC2(CCC2)C(=O)N(C)[C@@H](C2CCCC2)C(=O)N(C)[C@H](C(=O)N(C)C)CC(=O)N1C [PP3366] shows Kd equal to 1.1 nM

The compound listed as CCC[C@H]1C(=O)N[C@@H]([C@@H](C)CC)C(=O)N(C2CC2)CC(=O)N(C)[C@H]2C/C=C\CCN(C2=O)[C@@H](Cc2ccc(C)cc2)C(=O)N(C)CC(=O)N[C@@H](CCc2ccc(C(F)(F)F)c(OC)c2)C(=O)N2CC[C@H](OC)[C@H]2C(=O)N(C)C2(CCC2)C(=O)N(C)[C@@H](C2CCCC2)C(=O)N(C)[C@H](C(=O)N(C)C)CC(=O)N1C [PP3245] shows Kd equal to 0.18 nM

The compound listed as CCO[C@@H]1C[C@H]2C(=O)OC3(CCC3)C(=O)N(C)[C@@H](C3CCCC3)C(=O)N(C)[C@H](C(=O)N(C)C)CC(=O)N(C)[C@@H]([C@@H](C)OC)C(=O)N[C@@H]([C@@H](C)CC)C(=O)N3CCC[C@H]3C(=O)N(C)[C@H]3C/C=C\CCN(C3=O)[C@@H](Cc3ccc(C)cc3)C(=O)N(C)CC(=O)N[C@@H](CCc3ccc(C(F)(F)F)c(OC)c3)C(=O)N2C1 [PP3392] shows Kd equal to 0.64 nM

Reference for the values: patent EP4603105A1
